Tested on: NCI-H522 lung
Method summary: NCI tumour cell line growth inhibition, 48 h
Peptide text beside a SMILES is read from it. * marks the point of attachment. Boc = CC(C)(C)OC(=O)*; OBn = c1ccc(CO*)cc1
Parameter: TGI

- Molecule: "Cn1nc(-c2ccccc2)nc1[N+](=O)[O-]"
  Parameter: "TGI"
  Measured value: "> 10 µM"
- Molecule: "CC(NC(=O)CNC(=O)OC(C)(C)C)C(=O)NC(Cc1ccccc1)C(=O)OCc1ccccc1 (stereo not drawn) (Boc-Gly-Ala-Phe-OBn; configuration not given here)"
  Parameter: "TGI"
  Measured value: "> 100 µM"
- Molecule: "O=c1[nH]ccc2nc(N3CCC(O)CC3)nc(Nc3cccc(C(F)(F)F)c3)c12"
  Parameter: "TGI"
  Measured value: "10.1 µM"
- Molecule: "COc1cc(NP(=O)(Oc2ccccc2)Oc2ccccc2)ccc1Nc1c2ccccc2nc2c1[nH]c1ccccc12"
  Parameter: "TGI"
  Measured value: "7.32 µM"
- Molecule: "CCC[CH2][Sn]([CH2]CCC)([O]C(=O)C(N)CSC)[O]C(=O)C(N)CSC (centres undefined)"
  Parameter: "TGI"
  Measured value: "3.39 µM"
- Molecule: "COc1ccc(CNc2c3ccccc3nc3ccc(OC)cc23)cc1"
  Parameter: "TGI"
  Measured value: "14.3 µM"
- Molecule: "CC1=NN(C(=O)c2ccccc2O)C(=O)/C1=C/c1ccccc1O"
  Parameter: "TGI"
  Measured value: "17.9 µM"
- Molecule: "O=S(=O)(c1ccc(N=C2NN=C(c3c[nH]c4ccccc34)CS2)cc1)N1CCOCC1"
  Parameter: "TGI"
  Measured value: "> 100 µM"
- Molecule: "O=C(O)CC12C3C4C5C3C1C5C42 (centres undefined)"
  Parameter: "TGI"
  Measured value: "> 100 µM"

###

Tested on: SR leukemia
Method summary: NCI tumour cell line growth inhibition, 48 h

- Compound: "O=c1cc(CBr)c2ccc(O)cc2o1"
  TGI: "> 100 µM"
- Compound: "Cc1ccc(S(=O)(=O)NC2C(=O)c3ccccc3C(=O)C2n2cnc3ccccc32)cc1 (stereo not given)"
  TGI: "> 100 µM"
- Compound: "CC[Si](CC)(CC)OC[C@]1([C@@H]2COC(C)(C)O2)CC=CC(=O)O1"
  TGI: "95.1 µM"
- Compound: "CC1(C)CCCCCCC2OC2CCCCCC(C)(C)C1=O (stereo not given)"
  TGI: "> 70 µM"
- Compound: "CC(=O)OCC1OC(N2C(C)=C(C(C)=O)C(c3ccco3)C(C#N)=C2S)C(OC(C)=O)C(OC(C)=O)C1OC(C)=O (stereo not given)"
  TGI: "> 100 µM"
- Compound: "c1ccc2c(c1)-c1ccccc1C2N1CC2CCC(CC2)C1"
  TGI: "50.6 µM"
- Compound: "NC(=O)c1ccc2c(-c3ccnc(NCCCO)n3)c(-c3ccc(F)cc3)nn2c1"
  TGI: "> 25 µM"
- Compound: "O=C(Nc1ccc(F)cc1)C(=O)C(C1OC(=O)c2ccccc21)[N+](=O)[O-] (stereo not given)"
  TGI: "> 100 µM"
- Compound: "COc1ccc(/C=C2\\CCCCCC2=O)cc1"
  TGI: "> 100 µM"
- Compound: "CC1=NN(c2nc(N)nc(CSCc3nc(N)nc(N(C)C)n3)n2)C(C)(C)C1"
  TGI: "> 100 µM"

###

Tested on: OVCAR-4 ovarian
Method summary: NCI tumour cell line growth inhibition, 48 h
Consider the following compounds and their measured TGI readings.
Parameter: TGI

- Structure string: "O=C(O)c1ccccc1C(=O)Nn1cnnc1"
  Target or system: "OVCAR-4 ovarian"
  Measured value: "> 100 µM"
- Structure string: "NC1CCCCC1N.O=S(=O)([O-])CCCN1CCOCC1.O=S(=O)([O-])CCCN1CCOCC1.[Pt+4]"
  Target or system: "OVCAR-4 ovarian"
  Measured value: "> 100 µM"
- Structure string: "CN(C)CCCCN1c2ccccc2Sc2cc(N=[N+]=[N-])ccc21"
  Target or system: "OVCAR-4 ovarian"
  Measured value: "6.35 µM"

###

Consider the following compounds and their measured GI50 readings.
Tested on: KM12 colon
Method summary: NCI tumour cell line growth inhibition, 48 h

- Compound: "CCCN1CCN(c2ccc3nc(-c4ccc5nc(-c6cc(OC)ccc6OC)[nH]c5c4)[nH]c3c2)CC1"
  GI50: "1.86 µM"
- Compound: "NC(=N\\N=C/c1cccc([N+](=O)[O-])c1)/C(N)=N\\N=C/c1cccc([N+](=O)[O-])c1"
  GI50: "> 100 µM"
- Compound: "Cc1cc(N2CCCC2)nc(NC2CCCC(Nc3ccnc4cc(Cl)ccc34)C2)n1 (stereo not drawn)"
  GI50: "1.5 µM"
- Compound: "COc1cccc(-c2nc3sccn3c2-c2ccnc(NCCNS(=O)(=O)c3ccccc3)c2)c1"
  GI50: "3.13 µM"
- Compound: "NC(=O)c1ccc2c(-c3ccnc(NCCCO)n3)c(-c3ccc(F)cc3)nn2c1"
  GI50: "> 25 µM"
- Compound: "O=S(=O)(c1ccc(N=C2NN=C(c3c[nH]c4ccccc34)CS2)cc1)N1CCOCC1"
  GI50: "7.13 µM"
- Compound: "Cc1ccc(-c2nc(N)nc3c2nnn3Cc2cccc(CO[C@H]3CCOC3)n2)o1"
  GI50: "> 100 µM"
- Compound: "O=C([CH-]C(=O)c1ccccc1)c1ccccc1.O=C([CH-]C(=O)c1ccccc1)c1ccccc1.O=C([CH-]C(=O)c1ccccc1)c1ccccc1.[OH3+].[Y+3]"
  GI50: "5.38 µM"

###

Consider the following compounds and their measured TGI readings.
Tested on: CAKI-1 renal
Method summary: NCI tumour cell line growth inhibition, 48 h
Parameter: TGI

- Compound: "NC1=NN(c2ccccc2)C2(O)c3ccncc3C3=NN(c4ccccc4)C(=O)C132 (stereo not given)"
  Measured value: "> 100 µM"
- Compound: "O=C([CH-]C(=O)c1ccccc1)c1ccccc1.O=C([CH-]C(=O)c1ccccc1)c1ccccc1.O=C([CH-]C(=O)c1ccccc1)c1ccccc1.[OH3+].[Y+3]"
  Measured value: "26.8 µM"
- Compound: "C=C(Br)CN(C(C)=O)C1CCCCC1"
  Measured value: "> 100 µM"
- Compound: "C1CCN(C2OC3C(COC3N3CCCCC3)OC2OC2CCO[C@@H]2N2CCCCC2)CC1 (stereo not given in full)"
  Measured value: "> 100 µM"
- Compound: "C=CCC(C(=O)O)c1ccccc1 (stereo not given)"
  Measured value: "> 100 µM"
- Compound: "Cn1nc(-c2ccccc2)nc1[N+](=O)[O-]"
  Measured value: "> 10 µM"
- Compound: "Cc1ccc(/C=C/C(=O)c2sc(-c3cccnc3)nc2C)cc1"
  Measured value: "> 100 µM"
- Compound: "C(=NCc1ccccc1)c1ccccc1-c1ccccc1C=NCc1ccccc1"
  Measured value: "> 10 µM"
- Compound: "O=c1[nH]c2c3ccccc3ccc2c2cc3c(cc12)OCO3"
  Measured value: "> 100 µM"
- Compound: "CN(C)CCCCN1c2ccccc2Sc2cc(N=[N+]=[N-])ccc21"
  Measured value: "3.73 µM"

###

Test system: SW-620 colon
Method summary: NCI tumour cell line growth inhibition, 48 h

- Molecule: "CCC[CH2][Sn]([CH2]CCC)([O]C(=O)C(N)CSC)[O]C(=O)C(N)CSC (stereo not given)"
  Target or system: "SW-620 colon"
  TGI: "23 µM"
- Molecule: "CCCCC(=O)NC1(c2cc3ccccc3s2)CCCCC1"
  Target or system: "SW-620 colon"
  TGI: "> 100 µM"
- Molecule: "CCOC(=O)C1C(c2ccc(OC)cc2)c2c([nH][nH]c2=O)CC1(O)OCC (stereo not given)"
  Target or system: "SW-620 colon"
  TGI: "> 100 µM"
- Molecule: "CC(=O)OCC1OC(N2C(C)=C(C(C)=O)C(c3ccco3)C(C#N)=C2S)C(OC(C)=O)C(OC(C)=O)C1OC(C)=O (stereo not given)"
  Target or system: "SW-620 colon"
  TGI: "> 100 µM"
- Molecule: "CC/C=C/C(=O)CC(O)(C(F)(F)F)C(F)(F)F"
  Target or system: "SW-620 colon"
  TGI: "> 100 µM"
- Molecule: "COc1cc([C@@H]2c3cc4c(cc3C[C@@H]3COC(=O)C32)OCO4)cc(OC)c1O (stereo not given in full)"
  Target or system: "SW-620 colon"
  TGI: "> 100 µM"
- Molecule: "CC(=O)N(CCc1ccccc1)C(C#N)c1ccc(OCCCCCCCCCCOc2ccc(C(C#N)N(CCc3ccccc3)C(C)=O)cc2)cc1 (stereo not given)"
  Target or system: "SW-620 colon"
  TGI: "> 100 µM"
- Molecule: "Cc1occc1C(=S)Nc1ccc(Cl)c(/C=N/OC(C)C)c1"
  Target or system: "SW-620 colon"
  TGI: "52.3 µM"
- Molecule: "O=C(O)CC12C3C4C5C3C1C5C42 (stereo not given)"
  Target or system: "SW-620 colon"
  TGI: "> 100 µM"
- Molecule: "CN(C)CCCCN1c2ccccc2Sc2cc(N=[N+]=[N-])ccc21"
  Target or system: "SW-620 colon"
  TGI: "3.56 µM"
